Data origin: patent US8093274B2

- ASSAY_SYSTEM: GGTase I (substrate K-Ras4B) (Homo sapiens, UniProt P49354+P53609)
- PROTOCOL: GGTase I filter-binding assay with K-Ras4B as substrate
- Assay type: biochemical
- EXPERIMENTAL_SETUP: 50 μM compound; DMSO = 100%; smaller numbers indicate better inhibition; first number of pair; read-out: % activity of GGTase I for protein K-Ras4B in the presence of the compound
Recorded activity at 50 µM values for a group of molecules are listed next.

{"columns": ["MOLECULE", "activity at 50 µM (%)"],
 "data": [
  ["Cc1ccc(S(=O)(=O)N2C(c3cccc(Br)c3)CC=C(C(=O)O)[C@@H]2c2cccc(Br)c2)cc1 (stereo partly drawn)", 9.4],
  ["Cc1ccccc1S(=O)(=O)N1[C@@H](c2ccc(Cl)cc2)C(C(=O)O)=C[C@H]1C(C)(C)C (relative stereo)", 13.3],
  ["Cc1cccc([C@H]2C(C(=O)O)=CCC(c3ccc(Cl)cc3)N2S(=O)(=O)c2ccccc2C)c1 (stereo partly drawn)", 15.6],
  ["Cc1ccc(S(=O)(=O)N2C(c3cccc(Br)c3)CC=C(C(=O)O)[C@@H]2c2cccc(Cl)c2)cc1 (stereo partly drawn)", 9.8],
  ["Cc1ccc(S(=O)(=O)N2[C@H](CC3CCCC3)[C@@H](SCCC(=O)OC(C)(C)C)[C@@H](C(=O)O)[C@@H]2c2cccc(Cl)c2)cc1", 20.6],
  ["C=CCS[C@H]1[C@@H](C(=O)O)[C@H](c2ccc(C#N)cc2)N(S(=O)(=O)c2ccc(C)cc2)[C@@H]1C(C)C", 23.1],
  ["CCCCCC[C@@H]1[C@@H](SC2CCCC2)[C@@H](C(=O)O)[C@H](c2ccc(C#N)cc2)N1S(=O)(=O)c1ccc(C)cc1", 20.1],
  ["C=CCS[C@H]1[C@@H](C(=O)O)[C@H](c2ccc(C(C)C)cc2)N(S(=O)(=O)c2ccc(C)cc2)[C@@H]1CC1CCCC1", 31.7],
  ["C=CCS[C@H]1[C@@H](C(=O)O)[C@H](c2ccc(Cl)c(Cl)c2)N(S(=O)(=O)c2ccc(C)cc2)[C@@H]1CCCCCC", 15.1],
  ["CCCC[C@@H]1[C@@H](Sc2ccc(C)cc2)[C@@H](C(=O)O)[C@H](c2cccc(F)c2)N1S(=O)(=O)c1ccc(C)cc1", 31.5],
  ["Cc1ccccc1S(=O)(=O)N1C(c2ccc(Cl)cc2)CC=C(C(=O)O)[C@@H]1c1cccc(Br)c1 (stereo partly drawn)", 10.6],
  ["C=CCS[C@H]1[C@@H](C(=O)O)[C@H](c2ccc(Cl)cc2)N(S(=O)(=O)c2ccccc2C)[C@@H]1CC1CCCC1", 22.4],
  ["C=CCS[C@H]1[C@@H](C(=O)O)[C@H](c2ccc(Cl)c(Cl)c2)N(S(=O)(=O)c2ccc(C)cc2)[C@@H]1CCCC", 21.4],
  ["Cc1ccc(S(=O)(=O)N2C(c3ccc(Cl)c(Cl)c3)CC=C(C(=O)O)[C@@H]2c2cccc(C)c2)cc1 (stereo partly drawn)", 12.6],
  ["CCC[C@@H]1[C@@H](SCCC(=O)OC(C)(C)C)[C@@H](C(=O)O)[C@H](c2ccc(Cl)cc2)N1S(=O)(=O)c1ccc(Cl)cc1", 21.7]
]}
